- Tested on: NCI-H650
- assay comment: relative viability (nuclei count vs DMSO), 5 days (fraction); higher = more cells survive
- condition notes: first compound 0.4 µM
Please note: relative viability exactly at 0.5 is no. Only values below 0.5 get yes.

Task item: Criterion: relative viability strictly below 0.5. Is it met by COc1cc(N2CCC(C(N)=O)CC2)ccc1Nc1nc(N)c(Cl)c(Nc2ccccc2S(=O)(=O)C(C)C)n1 [HG-5-88-01] + CC(=O)Nc1cccc(-n2c(=O)n(C3CC3)c(=O)c3c(Nc4ccc(I)cc4F)n(C)c(=O)c(C)c32)c1 [Trametinib] (partner 0.02 µM) ?
Reply: no

Task item: Criterion: relative viability strictly below 0.5. Is it met by COc1cc(N2CCC(C(N)=O)CC2)ccc1Nc1nc(N)c(Cl)c(Nc2ccccc2S(=O)(=O)C(C)C)n1 [HG-5-88-01] + COc1cccc2cc(-c3nc([C@H]4CC[C@H](C(=O)O)CC4)n4ncnc(N)c34)[nH]c12 [OSI-027] (partner 0.5 µM) ?
Reply: yes

Task item: Criterion: relative viability strictly below 0.5. Is it met by C[C@@H]1CN(CC(=O)Nc2ccc3c(c2)Cc2cccc(-c4cc(=O)cc(N5CCOCC5)o4)c2S3)C[C@H](C)O1 + N=C(N)NC(=N)NCCc1ccccc1 [Phenformin] (partner 250 µM) ?
Reply: yes

Task item: Criterion: relative viability strictly below 0.5. Is it met by C[C@@H]1CN(CC(=O)Nc2ccc3c(c2)Cc2cccc(-c4cc(=O)cc(N5CCOCC5)o4)c2S3)C[C@H](C)O1 + CS(=O)(=O)N1CCN(Cc2cc3nc(-c4cccc5[nH]ncc45)nc(N4CCOCC4)c3s2)CC1 [Pictilisib] (partner 1 µM) ?
Reply: no

Task item: Criterion: relative viability strictly below 0.5. Is it met by Clc1ccc(Nc2nnc(Cc3ccncc3)c3ccccc23)cc1 [Vatalanib] + O=C(CCCCCCC(=O)Nc1ccccc1)NO [Vorinostat] (partner 1 µM) ?
Reply: yes

Task item: Criterion: relative viability strictly below 0.5. Is it met by COc1cc(N2CCC(C(N)=O)CC2)ccc1Nc1nc(N)c(Cl)c(Nc2ccccc2S(=O)(=O)C(C)C)n1 [HG-5-88-01] + Cc1nc(NC(=O)N2CCC[C@H]2C(N)=O)sc1-c1ccnc(C(C)(C)C(F)(F)F)c1 [Alpelisib] (partner 2 µM) ?
Reply: no

Task item: Criterion: relative viability strictly below 0.5. Is it met by COc1cc(N2CCC(C(N)=O)CC2)ccc1Nc1nc(N)c(Cl)c(Nc2ccccc2S(=O)(=O)C(C)C)n1 [HG-5-88-01] + O=C(c1cc(Cc2n[nH]c(=O)c3ccccc23)ccc1F)N1CCN(C(=O)C2CC2)CC1 [Olaparib] (partner 8 µM) ?
Reply: yes

Task item: Criterion: relative viability strictly below 0.5. Is it met by COc1cc(N2CCC(C(N)=O)CC2)ccc1Nc1nc(N)c(Cl)c(Nc2ccccc2S(=O)(=O)C(C)C)n1 [HG-5-88-01] + NC(=O)Nc1cc(-c2cccc(F)c2)sc1C(=O)N[C@H]1CCCNC1 [AZD7762] (partner 0.2 µM) ?
Reply: no
